Source listed as ChEMBL document CHEMBL1129463.

- Target system: Gastrin/cholecystokinin type B receptor (Homo sapiens)
- Sequence (P32239 whole entry): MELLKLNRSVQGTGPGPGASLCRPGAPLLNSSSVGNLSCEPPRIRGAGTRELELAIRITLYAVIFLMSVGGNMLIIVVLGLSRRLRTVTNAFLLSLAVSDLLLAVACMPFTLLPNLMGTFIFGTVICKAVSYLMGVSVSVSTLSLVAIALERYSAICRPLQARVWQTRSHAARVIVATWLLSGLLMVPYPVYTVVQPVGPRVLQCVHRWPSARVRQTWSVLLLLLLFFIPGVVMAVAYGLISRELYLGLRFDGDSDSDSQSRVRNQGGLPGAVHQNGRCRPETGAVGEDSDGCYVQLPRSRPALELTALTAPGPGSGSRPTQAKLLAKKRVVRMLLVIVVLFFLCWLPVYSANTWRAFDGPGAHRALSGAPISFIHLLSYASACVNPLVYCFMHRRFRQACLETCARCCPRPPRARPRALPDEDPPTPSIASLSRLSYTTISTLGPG
- Assay comment: Compound was tested in vitro for its ability to displace [125I]Bolton-Hunter CCK-8 from membrane preparation isolated from CHO-KI cells stably transfected with cDNA of human Cholecystokinin type B receptor
Endpoint label: pIC50
One number for each entry, as −log10 of the molar value.

CC(C)N(C(=O)CN1C(=O)C(NC(=O)Nc2cccc(C(=O)O)c2)C(=O)N(c2ccccc2)c2ccccc21)c1ccccc1 (configuration not stated): 8.00

Attention now turns to another entry.
State the recorded pIC50 for this entry: CC(C)N(C(=O)CN1C(=O)C(NC(=O)c2cc3ccccc3[nH]2)C(=O)N(c2ccccc2)c2ccccc21)c1ccccc1 (configuration not stated) 6.50
